The measured values listed here are drawn from patent US10800784B2.

Experimental system: human PDHK1 (hPDHK1) (Homo sapiens (Human), UniProt Q15118)
Sequence (Q15118 29-436): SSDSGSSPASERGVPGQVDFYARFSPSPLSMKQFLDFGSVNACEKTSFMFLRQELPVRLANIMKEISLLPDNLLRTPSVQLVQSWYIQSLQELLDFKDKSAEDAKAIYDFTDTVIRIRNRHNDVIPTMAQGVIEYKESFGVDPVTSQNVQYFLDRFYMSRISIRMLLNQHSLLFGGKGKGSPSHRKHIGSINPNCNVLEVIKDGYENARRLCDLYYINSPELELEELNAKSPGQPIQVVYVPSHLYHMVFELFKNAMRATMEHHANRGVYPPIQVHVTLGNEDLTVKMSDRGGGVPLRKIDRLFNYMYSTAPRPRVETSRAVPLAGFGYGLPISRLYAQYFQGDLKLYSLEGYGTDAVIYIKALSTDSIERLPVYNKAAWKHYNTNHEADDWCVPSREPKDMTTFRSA
Protocol details: Inhibitory action of PDHK1 activity in vitro (residual PDH activity after PDHK reaction)
Condition notes: PDH/hPDHK1 complex solution, PDHK reaction at room temperature for 45 min, NADH absorbance at 340 nm; read-out: hPDK1 IC50
Below, each entry is listed alongside its reported IC50.
Readout type: IC50 (nM)

• C[C@H]1CN(C(=O)c2ccnc(C3CC3)c2)Cc2cnc([C@@](C)(O)C(F)(F)F)n21 = 8
• C[C@H]1CN(C(=O)c2cc(C3CC3)nn2C)Cc2nnc([C@@](C)(O)C(F)(F)F)n21 = 6
• C[C@H]1CN(C(=O)c2c3c(F)cc(F)cc3nn2C)Cc2cnc([C@@](C)(O)C(F)(F)F)n21 = 11
• C[C@H]1CN(C(=O)c2ccc(F)cc2C2CC2)Cc2cnc([C@@](C)(O)C(F)(F)F)n21 = 9
• C[C@H]1CN(C(=O)c2cccc3[nH]ncc23)Cc2onc([C@@](C)(O)C(F)(F)F)c21 = 4
• C[C@H]1CN(C(=O)c2ccnc(-c3ccc(F)cc3F)c2)Cc2cnc([C@@](C)(O)C(F)(F)F)n21 = 3
• C[C@H]1CN(C(=O)c2ccnc(-c3ccc(C#N)cc3)c2F)Cc2cnc([C@@](C)(O)C(F)(F)F)n21 = 4
• C[C@H]1CN(C(=O)c2cc(-c3ccc(C#N)cc3)ncc2F)Cc2cnc([C@@](C)(O)C(F)(F)F)n21 = 4
• C[C@H]1CN(C(=O)c2cn(C)nc2C2CC2)Cc2onc([C@@](C)(O)C(F)(F)F)c21 = 5
